Biological target: T1, IL-1β (UniProt P01584 117-269)
T1 construct: Antigen immobilised on the Biacore chip
Assay: Biacore, periplasmic extract
List of fold difference in affinity vs original values.
observation type: fold difference in affinity vs original (fold)

1) XPA23 light chain S50N (Fab, V domains shown) VH: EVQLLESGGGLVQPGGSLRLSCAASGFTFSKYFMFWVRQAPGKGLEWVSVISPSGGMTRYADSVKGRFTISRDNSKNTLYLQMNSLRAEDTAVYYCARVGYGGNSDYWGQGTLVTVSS VL: DIQMTQSPSSVSASVGDRLTIICRASQDINRWLAWYQQTPGNAPKLLIHNATSLQSGVPSRFSGSGSGTDFTLTINSLQPEDFATYYCQQADSFPLTFGGGTKVEIK | 0.25
2) XPA23 light chain H49A (Fab, V domains shown) VH: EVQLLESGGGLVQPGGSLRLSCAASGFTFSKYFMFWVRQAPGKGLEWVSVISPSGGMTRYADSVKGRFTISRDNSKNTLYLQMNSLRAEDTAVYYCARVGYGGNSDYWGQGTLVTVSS VL: DIQMTQSPSSVSASVGDRLTIICRASQDINRWLAWYQQTPGNAPKLLIASATSLQSGVPSRFSGSGSGTDFTLTINSLQPEDFATYYCQQADSFPLTFGGGTKVEIK | 0.23
3) XPA23 light chain T52D (Fab, V domains shown) VH: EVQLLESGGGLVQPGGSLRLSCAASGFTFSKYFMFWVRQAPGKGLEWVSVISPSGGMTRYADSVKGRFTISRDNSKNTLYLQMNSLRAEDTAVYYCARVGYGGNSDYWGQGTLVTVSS VL: DIQMTQSPSSVSASVGDRLTIICRASQDINRWLAWYQQTPGNAPKLLIHSADSLQSGVPSRFSGSGSGTDFTLTINSLQPEDFATYYCQQADSFPLTFGGGTKVEIK | 0.72
